Test system: SF-268 CNS
Experiment: NCI tumour cell line growth inhibition, 48 h
Where a SMILES comes first, the peptide text is derived from it. [ ]: non-standard residue; d: D form. ξ: configuration not given here. ξLac(3-iPr) = CC(C)CC(O)C(=O)O; NMeV = CN[CH](C(=O)O)C(C)C; NMeA = CN[CH](C)C(=O)O; βAla = NCCC(=O)O
# TGI annotations

Some solved entries appear below for comparison.
MOLECULE: CCCCCCCCCNC(=O)/C=C/c1ccc(O)c(O)c1
SYSTEM TESTED: SF-268 CNS
TGI: 31.9 µM
//
MOLECULE: CC(=O)O[C@@]12CO[C@@H]1C[C@@H](O)[C@@]1(C)C(=O)[C@H](O)C3=C(C)[C@@H](OC(=O)[C@H](O)[C@@H](NC(=O)c4ccccc4)c4ccccc4)C[C@@](O)([C@@H](OC(=O)c4ccccc4)C12)C3(C)C (some centres not stated)
SYSTEM TESTED: SF-268 CNS
TGI: > 100 µM
//
MOLECULE: COc1ccc(NC(C)=O)c(C(O)CCNC(C)=O)c1 (configuration not stated)
SYSTEM TESTED: SF-268 CNS
TGI: > 100 µM
//
MOLECULE: CC(=O)OCC(C)(COC(C)=O)N1C(=O)C2C3c4ccccc4C(c4ccccc43)C2C1=O (configuration not stated)
SYSTEM TESTED: SF-268 CNS
TGI: > 100 µM
//
MOLECULE: Cc1[nH]c(=O)[nH]c1C(=O)c1ccc(-n2ccnc2)cc1
SYSTEM TESTED: SF-268 CNS
TGI: > 100 µM

For the molecule COC(=O)[C@H]1COC(=O)N1 , give its reported TGI. > 100 µM

For the molecule COC(=O)C(C(=O)C(=O)Nc1cccc([N+](=O)[O-])c1)c1nc2ccc([N+](=O)[O-])cc2[nH]c1=O (configuration not stated) , give its reported TGI. > 100 µM

For the molecule O=[N+]([O-])c1cc(C(F)(F)F)ccc1Sc1ccc(C(F)(F)F)cc1[N+](=O)[O-] , give its reported TGI. > 100 µM

For the molecule CCC(=O)Nc1ccc(C)c(-c2ccc(C(=O)NCC3CC3)cc2)c1 , give its reported TGI. > 25 µM

For the molecule CC(CN(C)C)Oc1ccccc1NC1=C(Cl)C(=O)C(Nc2ccccc2OC(C)CN(C)C)=C(Cl)C1=O (configuration not stated) , give its reported TGI. 3.06 µM

For the molecule COc1cc(C2=N/C(=C/c3cccs3)C(=O)O2)cc(OC)c1OC , give its reported TGI. > 100 µM

For the molecule CCS(=O)(=O)CCn1c(=O)c2c(ncn2C)n(C)c1=O , give its reported TGI. > 100 µM

For the molecule COC(=O)C(Br)C1CCc2ccccc21 (configuration not stated) , give its reported TGI. > 100 µM

For the molecule C[N+](C)(C)CC(=O)N/N=C(\C(=O)NC1=C(Cl)C(=O)c2ccccc2C1=O)C(C#N)c1nc(-c2ccc([N+](=O)[O-])cc2)cs1 (configuration not stated) , give its reported TGI. 38.4 µM

For the molecule CCCCCCCCCC(=O)OCC1OC(n2cc(F)c(=O)[nH]c2=O)C(NC(=O)OCc2ccccc2)C(OC(=O)CCCCCCCCC)C1O (configuration not stated) , give its reported TGI. > 100 µM

For the molecule O=C(N/N=C/c1ccc(O)cc1O)c1cccc(Nc2ccnc(C(F)(F)F)c2)c1 , give its reported TGI. 30.4 µM

For the molecule CCC(C)C1NC(=O)C2CCCN2C(=O)C(CC(C)C)OC(=O)CCNC(=O)C(C)N(C)C(=O)C(C(C)C)N(C)C1=O (configuration not stated) (cyclo([ξLac(3-iPr)]PI[NMeV][NMeA][βAla]); configuration not given here) , give its reported TGI. 80.9 µM
